Species on record: Rattus norvegicus
Assay: Inhibition of rat recombinant geranylgeranyltransferase type I expressed in Escherichia coli assessed as residual enzyme activity for geranylgeranylation of K-Ras4B at 50 uM incubated for 30 mins in presence of [3H]GGPP by scintillation counting assay relative to control
Rule: Activity below 60% gives T, anything at or above gives F.

Task: A record lists COC(=O)c1ccccc1S(=O)(=O)N1[C@@H](c2cccc(F)c2)C(C(=O)O)=CC[C@H]1c1ccc(C)cc1 . Is its Activity below 60%?
Output: F

Task: Is it true that Activity reported for COc1ccc([C@@H]2CC=C(C(=O)O)[C@H](c3ccc(F)cc3)N2S(=O)(=O)c2ccccc2)cc1 is less than 60%?
Output: F

----------
Entries annotated with measured Activity
Species: Rattus norvegicus
Test: Inhibition of rat recombinant geranylgeranyltransferase type I expressed in Escherichia coli assessed as residual enzyme activity for geranylgeranylation of K-Ras4B at 50 uM incubated for 30 mins in presence of [3H]GGPP by scintillation counting assay relative to control
Please reply with the bare figure in % and do not write the unit itself.

Consider the reported Activity for these compounds:
Task: Return reported Activity. Input compound: CCCCCS[C@@H]1C[C@@H](c2ccc(Cl)cc2)N(S(=O)(=O)c2ccccc2C)C[C@H]1C(=O)O
Output: 57.9

Task: Recall and state the measured Activity for CCCCS[C@@H]1C[C@@H](c2ccc(OC)cc2)N(S(=O)(=O)c2ccc(C)cc2)C[C@H]1C(=O)O .
Output: 74.5

Others:
Task: Quote Activity reported for Cc1ccc(S(=O)(=O)N2C[C@@H](C(=O)O)[C@H](SC3CCCC3)C[C@H]2c2ccc(Cl)cc2)cc1 please.
Output: 94.7

----------
Species on record: Rattus norvegicus
Assay: Inhibition of rat recombinant geranylgeranyltransferase type I expressed in Escherichia coli assessed as residual enzyme activity for geranylgeranylation of K-Ras4B at 50 uM incubated for 30 mins in presence of [3H]GGPP by scintillation counting assay relative to control
measuredMetric: Activity (%)
Express your answer in %, writing the number without its unit.

See these solved cases before continuing.
Task: Entry Cc1ccc([C@@H]2CC=C(C(=O)O)[C@H](c3ccc(F)cc3)N2S(=O)(=O)c2ccccc2C)cc1 needs its Activity filled in; supply it.
Output: 50.9

Task: Please indicate Activity recorded for CCCCCCS[C@@H]1C[C@@H](c2ccc(C)cc2)N(S(=O)(=O)c2ccc(Cl)cc2)C[C@H]1C(=O)O
Output: 71.6

Task: Assign Activity to the following record: Cc1ccc(S(=O)(=O)N2[C@@H](c3ccc(Cl)cc3)C(C(=O)O)=CC[C@H]2c2ccc3c(c2)OCO3)cc1
Output: 73.4

Task: Tell me Activity reported for C=CCS[C@@H]1C[C@@H](c2ccc(C)cc2)N(S(=O)(=O)c2ccccc2C)C[C@H]1C(=O)O
Output: 34.5

More entries:
Task: Please report Activity for the following compound: Cc1ccc([C@@H]2CC=C(C(=O)O)[C@H](c3ccc(F)cc3)N2S(C)(=O)=O)cc1
Output: 84.4

Task: Entry Cc1ccc([C@H]2C(C(=O)O)=CC[C@@H](c3ccc(Cl)cc3)N2S(C)(=O)=O)cc1 needs its Activity filled in; supply it.
Output: 90.6

Task: Entry Cc1ccc(S(=O)(=O)N2[C@@H](c3ccc(C(C)(C)C)cc3)C(C(=O)O)=CC[C@H]2c2ccccc2)cc1 needs its Activity filled in; supply it.
Output: 75.2

Task: Write down Activity measured for item Cc1ccc(S(=O)(=O)N2C[C@@H](C(=O)O)[C@H](Sc3ccc(Cl)cc3)C[C@H]2c2ccccc2F)cc1
Output: 88.8

Task: Determine its reported Activity: C=CCS[C@H]1[C@@H](C(=O)O)[C@H](c2ccc(OC)c(OC)c2)N(S(=O)(=O)c2ccc(C)cc2)[C@@H]1CCCCCC
Output: 22.3
